Source listed as paper PMC8949806.

- measurement description: in vivo
- Design: species or system BALB/c nude mice
- measurement parameters: female, BALB/c nude, mouse, iv, total radioactivity, Tumor-to-kidney ratio
Where a SMILES comes first, the peptide text is derived from it. [ ]: non-standard residue; d: D form. The star is where a group is joined. DOTA = O=C(O)CN1CCN(CC(=O)O)CCN(CC(=O)*)CCN(CC(=O)O)CC1; 1Nal = N[C@@H](Cc1cccc2ccccc12)C(=O)O; NMeNle = CCCC[C@H](NC)C(=O)O
metric: tissue to tissue ratio at 1 h
Field format: numeric only.

GET /values?readout=tissue to tissue ratio at 1 h&item= CCCC[C@@H](C(=O)N[C@@H](CC(=O)O)C(=O)N[C@@H](Cc1cccc2ccccc12)C(N)=O)N(C)C(=O)[C@H](Cc1c[nH]c2ccccc12)NC(=O)CNC(=O)[C@H](Cc1ccc(O)cc1)NC(=O)[C@@H]1CCCN1C(=O)[C@@H](CCC(=O)O)NC(=O)CN1CCN(CC(=O)O)CCN(CC(=O)O)CCN(CC(=O)O)CC1 [[^68Ga]Ga-DOTA-MGS8, metal not drawn] ({DOTA}-[dE]PYGW[NMeNle]D[1Nal]-NH2)
4.41

---

- measurement description: in vivo
- Set-up: species or system BALB/c nude mice
- measurement parameters: female, BALB/c nude, mouse, iv, total radioactivity, Tumor-to-blood ratio
- Protocol: Biodistribution studies were performed in accordance with the ethical standards of the institution and approved by the Austrian Ministry of Science (BMWFW-66.011/0072-V/3b/2019). […] The final injection solution was diluted with PBS containing 0.5% bovine serum albumin (BSA) to reach an injected radioactivity of ~200 kBq and a total injected peptide amount of ~30 pmol. […] The volume injected to each mouse was determined by calculating the difference in weight of the syringe before and after injection. […]
Where a SMILES comes first, the peptide text is derived from it. [ ]: non-standard residue; d: D form. The star is where a group is joined. DOTA = O=C(O)CN1CCN(CC(=O)O)CCN(CC(=O)*)CCN(CC(=O)O)CC1; 1Nal = N[C@@H](Cc1cccc2ccccc12)C(=O)O; NMeNle = CCCC[C@H](NC)C(=O)O
metric: tissue to tissue ratio at 1 h
Field format: numeric only.

GET /values?readout=tissue to tissue ratio at 1 h&item= CCCC[C@@H](C(=O)N[C@@H](CC(=O)O)C(=O)N[C@@H](Cc1cccc2ccccc12)C(N)=O)N(C)C(=O)[C@H](Cc1c[nH]c2ccccc12)NC(=O)CNC(=O)[C@H](Cc1ccc(O)cc1)NC(=O)[C@@H]1CCCN1C(=O)[C@@H](CCC(=O)O)NC(=O)CN1CCN(CC(=O)O)CCN(CC(=O)O)CCN(CC(=O)O)CC1 [[^68Ga]Ga-DOTA-MGS8, metal not drawn] ({DOTA}-[dE]PYGW[NMeNle]D[1Nal]-NH2)
13.4
